Biological target: Serine/threonine-protein kinase PLK1 (Homo sapiens)
Assay: qHTS for Inhibitors of PLK1-PDB (polo-like kinase 1 - polo-box domain): Primary Screen; also: series mostly up to about 57 µM; % is scaled to controls: 0 for no effect and ±100 for the full control effect; nearly all actives have a fitted effect of over 65% in size
Conditions: Plk1 PBD binding of FITC phosphopeptide, fluorescence polarization
Hit rate of the full screen: of about 360,000 compounds, about 10,000 (2.8%) were called active. Inconclusive results (about 4%) are left out. The sample holds actives, similar compounds and a random draw of the others, so the mix is not that of the screen.
Reported property: max response, negative = inhibition

Give max response, negative = inhibition for COc1ccc(-c2cc(C(=O)N3CCN(c4ccc(F)cc4)CC3)no2)cc1 -9.29% (inactive)

Respond only with max response, negative = inhibition recorded for O=C(c1cc(-c2ccc(Cl)cc2)on1)N1CCN(c2ccccc2)CC1 -5.98% (inactive)

State its max response, negative = inhibition: CC(C)c1ccc(CC(=O)N2CCC2(C)C(=O)NS(=O)(=O)c2ccc(C(C)(C)C)cc2)cc1 (stereo unspecified) -5.51% (inactive)

Note down max response, negative = inhibition recorded for COc1cc2c(=O)n(C)c3ccccc3c2cc1OC -8.91% (inactive)

Identify measured max response, negative = inhibition corresponding to CCn1c(CC(=O)Nc2ccccc2)nnc1SCC(=O)N1CCOCC1 -0.409% (inactive)

Provide one value: measured max response, negative = inhibition of COCCNC(=O)c1cc2c(Br)ccc(Br)c2nc1N -4.02% (inactive)

Output max response, negative = inhibition of CCCc1c(-c2ccccc2F)ncn1Cc1ccccc1OC -1.08% (inactive)

Determine its reported max response, negative = inhibition: CCn1c(SCC(=O)Nc2ccc(S(=O)(=O)Nc3onc(C)c3C)cc2)nnc1-c1ccccc1 3.27% (inactive)

Fill in max response, negative = inhibition for record CCOC(=O)N1C(=O)C[C@](Sc2ccc(C)cc2)(C(=O)OC)[C@H]1c1ccccc1 -3.98% (inactive)

State its max response, negative = inhibition for this molecule: CCOC(=O)c1cc(C)nc(S(C)(=O)=O)c1C#N -3.21% (inactive)

Give max response, negative = inhibition for the following molecule: CC(CCc1ccccc1)NC(=O)c1ccc(Br)o1 (stereo unspecified) -7.05% (inactive)
